- Test system: HeLa
- test_summary: Induction of necrosis in human HeLa cells assessed as remaining metabolic activity after 30 mins by resazurin dye-based assay
- Type: functional
- particulars: 0.5 h, read-out: LC50 (the source's name)
Parameter CC50: see the listing below.

# compound, result_unit, CC50
measured = [
    ("CC1=C[C@]23C(=O)[C@@H](C=C(CO)[C@@H](O)[C@]2(O)[C@H]1OC(=O)c1c(N)cccc1F)[C@H]1[C@@H](C[C@H]3C)C1(C)C", "µM", 201),
    ("CC1=C[C@]23C(=O)[C@@H](C=C(CO)[C@@H](O)[C@]2(O)[C@H]1OC(=O)c1ccccc1Nc1ccccc1)[C@H]1[C@@H](C[C@H]3C)C1(C)C", "µM", 307),
    ("CNc1cccc(F)c1C(=O)O[C@H]1C(C)=C[C@]23C(=O)[C@@H](C=C(CO)[C@@H](O)[C@]12O)[C@H]1[C@@H](C[C@H]3C)C1(C)C", "µM", 152),
    ("CC1=C[C@]23C(=O)[C@@H](C=C(CO)[C@@H](O)[C@]2(O)[C@H]1OC(=O)c1ccccc1C(C)C)[C@H]1[C@@H](C[C@H]3C)C1(C)C", "µM", 110),
    ("CC1=C[C@]23C(=O)[C@@H](C=C(CO)[C@@H](O)[C@]2(O)[C@H]1OCc1ccccc1)[C@H]1[C@@H](C[C@H]3C)C1(C)C", "µM", 378),
    ("CC1=C[C@]23C(=O)[C@@H](C=C(CO)[C@@H](O)[C@]2(O)[C@H]1OC(=O)c1ccccc1OC(C)C)[C@H]1[C@@H](C[C@H]3C)C1(C)C", "µM", 192),
    ("CC1=C[C@]23C(=O)[C@@H](C=C(CO)[C@@H](O)[C@]2(O)[C@H]1OC(=O)c1c(C)cccc1O)[C@H]1[C@@H](C[C@H]3C)C1(C)C", "µM", 199),
    ("C/C=C(/C)C(=O)O[C@H]1C(C)=C[C@]23C(=O)[C@@H](C=C(CO)[C@@H](O)[C@]12O)[C@H]1[C@@H](C[C@H]3C)C1(C)C [INGENOL MEBUTATE]", "µM", 230),
    ("CNc1ccccc1C(=O)O[C@H]1C(C)=C[C@]23C(=O)[C@@H](C=C(CO)[C@@H](O)[C@]12O)[C@H]1[C@@H](C[C@H]3C)C1(C)C", "µM", 95),
    ("CC1=C[C@]23C(=O)[C@@H](C=C(CO)[C@@H](O)[C@]2(O)[C@H]1OC(=O)c1ccccc1Oc1ccccc1)[C@H]1[C@@H](C[C@H]3C)C1(C)C", "µM", 83),
    ("CC1=C[C@]23C(=O)[C@@H](C=C(CO)[C@@H](O)[C@]2(O)[C@H]1OC(=O)c1ccccc1NCc1ccccc1)[C@H]1[C@@H](C[C@H]3C)C1(C)C", "µM", 168),
]
